The measurements presented in this section are drawn from the supplement of paper PMC11061612.

- System: 697 (B-Lymphoblastic Leukemia);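 further: after 72 h of two-drug dosing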
- protocol description: Bliss excess, mean over the matrix (fraction); higher = more synergy
So I've got a bunch of molecules here, and I need their Bliss excess values.
One number for each entry.

INSERT INTO assay_data (molecule, tested_target, result_type, reported) VALUES
  ('CC1(C)CCC(CN2CCN(c3ccc(C(=O)NS(=O)(=O)c4ccc(NCC5CCOCC5)c([N+](=O)[O-])c4)c(Oc4cnc5[nH]ccc5c4)c3)CC2)=C(c2ccc(Cl)cc2)C1 [Venetoclax] + CN(C)CCCOc1ccc(-c2ccc3ncc4c(c3c2)n(C2CCOCC2)c(=O)n4C)cn1 [AZD0156] (first compound max 1 µM, 7x7, partner max 1 µM)', '697 (B-Lymphoblastic Leukemia)', 'Bliss excess', -0.0012);

For every record below, what is its Bliss excess?
1. CC1(C)CCC(CN2CCN(c3ccc(C(=O)NS(=O)(=O)c4ccc(NCC5CCOCC5)c([N+](=O)[O-])c4)c(Oc4cnc5[nH]ccc5c4)c3)CC2)=C(c2ccc(Cl)cc2)C1 [Venetoclax] + COc1cc(Nc2ncc3c(n2)-c2ccc(Cl)cc2C(c2c(F)cccc2OC)=NC3)ccc1C(=O)O [Alisertib] (first compound max 1 µM, 7x7, partner max 10 µM)
2. COc1nnc2ccc(N3CCC(c4ccc(OCCN5CCN(C)C(=O)[C@H]5C)cc4)CC3)nn12 [AZD5153] + C=CCn1c(=O)c2cnc(Nc3ccc(N4CCN(C)CC4)cc3)nc2n1-c1cccc(C(C)(C)O)n1 [AZD1775] (first compound max 1 µM, partner max 1 µM)
3. COc1cccc(OCCCN)c1-c1cc(Nc2cnc(C#N)cn2)n[nH]1 [Prexasertib] + C[C@@H]1COCCN1C2=NC(=NC(=C2)C3(CC3)[S@](=N)(=O)C)C4=C5C=CNC5=NC=C4 [AZD6738] (first compound max 1 µM, 7x7, partner max 10 µM)

Result:
1: 0.0193; 2: -0.0478; 3: 0.0031

----------
- System: NCI-H2369 (Mesothelioma)
- protocol description: combination Emax (second highest fraction inhibited in the dose matrix, 72 h); higher = more inhibition; extreme values may be limits of the assay
So I've got a bunch of molecules here, and I need their combination Emax values.
Answers are plain numbers.

# example entries with known answers
INSERT INTO results (molecule, reported) VALUES
  ('CC(=O)c1c(C)c2cnc(Nc3ccc(N4CCNCC4)cn3)nc2n(C2CCCC2)c1=O [Palbociclib] + Cc1c2c(nn1C)CSCc1cc(n(C)n1)CSc1cc(c3ccccc3c1)OCCCc1c(C(=O)O)n(C)c3c-2c(Cl)ccc13 [AZD5991] (first compound max 10 µM, 7x7, partner max 1 µM)', 0.199),
  ('CN(CCO)CC[C@H](CSc1ccccc1)Nc1ccc(S(=O)(=O)NC(=O)c2ccc(N3CCC([C@@H](O)c4ccccc4-c4ccc(Cl)cc4)CC3)cc2)cc1S(=O)(=O)C(F)(F)F [AZD4320] + C1CN(CCC1(C(=O)N[C@@H](CCO)C2=CC=C(C=C2)Cl)N)C3=NC=NC4=C3C=CN4 [Capivasertib] (first compound max 1 µM, 7x7, partner max 3 µM)', 0.859);

Q: Would you mind telling me what combination Emax value was observed for COc1cccc(OCCCN)c1-c1cc(Nc2cnc(C#N)cn2)n[nH]1 [Prexasertib] + C[C@@H]1COCCN1C2=NC(=NC(=C2)C3(CC3)[S@](=N)(=O)C)C4=C5C=CNC5=NC=C4 [AZD6738] (first compound max 1 µM, 7x7, partner max 10 µM) ?
Result: 0.192
